- Test system: K-562 leukemia
- Assay overview: NCI-60 one-dose screen, 48 h (100 = growth as untreated, 0 = no growth, -100 = all killed)
- Run parameters: 10 µM
About 83,000 compounds went through this panel and 20% of them were active in at least one assay; those are over-represented in the sample as a whole. Activity calls are given as the source filed them. How the source made its calls: active means growth percent below 10; inactive means the rest.
Here the recorded growth is given for each entry.

{"Molecule": "CC/C(=C/c1ccc(OC)cc1)[N+](=O)[O-]", "Observed result": "5.85% (active)"}

Reading of growth for COS(=O)(=O)c1ccccc1 with K-562 leukemia: 103% (inactive)

Recorded growth for O=[N+]([O-])c1ccc(N2CCOCC2)c2c1no[n+]2[O-] on K-562 leukemia was -29.6% (active)

Value (growth, K-562 leukemia) for record CN(C)CC1(N)C(=O)NC(=O)NC1=O = 99.3% (inactive)
